Parameter: pull-down binding Z-score. Scope: all listed entries.
# System: TO-N3-2 (biotin conjugate)
# assay.info: pull-down binding Z-score (relative to library population); higher = stronger binding
# condition.label: RNA library: Library-2
readout: pull-down binding Z-score

In [3]: df
Out[3]:
                             sequence_chain                    readout  assay_value
0  GCUCUAAUAAUUUAUUCUAAUAAUAAUUUAGAUC [hsa-mir-7976]  pull-down binding Z-score        -1.31
1      CAUGAUUUGGAAAAAUUACUG [hsa-mir-6128]  pull-down binding Z-score       -0.315
2  GCGCGGGAAAGUUCGGGAACGCGCG [hsa-mir-4479]  pull-down binding Z-score         1.72
3  UCUGUACCGUCUGCGGUAUGUGGA [DMSMaPseq_invitro_SARS-CoV-2_Motif_240]  pull-down binding Z-score        0.111
4    CCAAAUCAGAAAAGGAUUUGG [hsa-mir-4520-1]  pull-down binding Z-score       -0.892
5  AUCUGAGGUGACUGGCACAGAAGACUCAGG [hsa-mir-6735]  pull-down binding Z-score        0.797
6  CUUUGUCAUUAAAACCAAUAACAAAA [hsa-mir-548ap]  pull-down binding Z-score       -0.638
7  GAUUCUGAUUCAGGGACCAAGAUUC [hsa-mir-544a]  pull-down binding Z-score        0.414
8  UGUACUUGGAUUGGCUGCAAUCAUGCAAUUGUUUUUCAGCUAUUUUGCAGUACA [SHAPE_invivo_SARS-CoV-2_Motif_149]  pull-down binding Z-score       -0.907
9        UUGUGUCCAUCAUGCAACAA [hsa-mir-802]  pull-down binding Z-score        0.396

---

# System: TO-3-N3 (biotin conjugate)
# assay.info: pull-down binding Z-score (relative to library population); higher = stronger binding
# condition.label: RNA library: Library-2
Parameter: pull-down binding Z-score. Scope: all listed entries.
readout: pull-down binding Z-score

sequence.chain	readout	assay.value
UGAUUUUUGUGGAAAGGGCUAUCAUCUUAUGUCCUUCCCUCAGUCA [SHAPE_invivo_SARS-CoV-2_Motif_462]	pull-down binding Z-score	-0.662
UGAUAGUCAACAAACUGUUGGUCAACAAGACGGCAGUGAGGACAAUCA	pull-down binding Z-score	0.68
CCUGAAUCUUGG [IAV_invivo_PB1_2_Motif_21+IAV_invivo_PB1_2_Motif_21]	pull-down binding Z-score	-0.834
GCAGCCUUGC [hsa-mir-4298]	pull-down binding Z-score	0.177
UAGAGAAAACAACAGAGUUGUUAUUUCUAGUGAUGUUCUUGUUAACAACUAAACGAACAAUGUUUGUUUUUCUUGUUUUAUUGCCACUAGUCUCUA [SHAPE_invitro_SARS-CoV-2_Multi_58_ComplexLevel_1]	pull-down binding Z-score	-0.989
GGACCAGGAACUAAUCAGACAAGGAACUGAUUACAAACAUUGGCC [DMSMaPseq_invitro_SARS-CoV-2_Motif_522]	pull-down binding Z-score	1.03
AGUCACUUACACUACAUGUCACU [hsa-mir-892a]	pull-down binding Z-score	-0.926
UGGUCAGGCGGCU [hsa-mir-3917]	pull-down binding Z-score	-0.142
ACAUGCCAAUUUAGAUUCUUGCAAAAGAGUCUUGAACGUGGUGUGU	pull-down binding Z-score	-1.07
GGUUUCGGGCUGCC [hsa-mir-661]	pull-down binding Z-score	0.148
AAGAAGCUGCGCUGUGCACCUUUUU [DMSMaPseq_invitro_SARS-CoV-2_Motif_178]	pull-down binding Z-score	-0.433
GGUGGCAAUCAAGGUCUAGCCACC [hsa-mir-4733]	pull-down binding Z-score	0.369
CACAGUUCUGG [hsa-mir-761]	pull-down binding Z-score	0.292
GUCUGCCAAGGUUUUGGCAGAC [hsa-mir-3913-2]	pull-down binding Z-score	-0.58
GCUCUAAUAAUUUAUUCUAAUAAUAAUUUAGAUC [hsa-mir-7976]	pull-down binding Z-score	-0.976
UGGUAUUCUUGCUA	pull-down binding Z-score	-0.297
CGCUGAUGUGCAUUCAACUCAUUCUCAGCA [hsa-mir-1468]	pull-down binding Z-score	-0.116
CCUUAUAAUUCACAGAAUGCUGUAGCCUCAAAGAUUUUGGGACUACCAACUCAAACUGUUGAUUCAUCACAGG [DMSMaPseq_invitro_SARS-CoV-2_Motif_319]	pull-down binding Z-score	-0.541
GGCAGACGUGGUCCAGAACAAACCCAAGGAAAUUUUGGGGACCAGGAACUAAUCAGACAAGGAACUGAUUACAAACAUUGGCC	pull-down binding Z-score	0.608

---

# Tested on: TO-3-N3 (biotin conjugate)
# assay.info: pull-down binding Z-score (relative to library population); higher = stronger binding
# condition.label: RNA library: Library-2
Label label 1 when pull-down binding Z-score is at or above -0.1; otherwise label label 0.

>>> print(df.to_string())
                              sequence_chain               target_system  classification
 0  UUUGCCAUUAAAAGUAAUGGUAAA [hsa-mir-548x-2]  TO-3-N3 (biotin conjugate)         label 0
 1    CCCAGAGAAAGCCUGAACGUUGGG [hsa-mir-585]  TO-3-N3 (biotin conjugate)         label 0
 2  CUUUUGAAGAAG [SHAPE_invivo_SARS-CoV-2_Motif_195]  TO-3-N3 (biotin conjugate)         label 0
 3  CUGGAGUCGCCUGAGUCAUCACUCAG [hsa-mir-3065]  TO-3-N3 (biotin conjugate)         label 0
 4      GCGCUGCCAGAAACUGGCGGAGCGC [bulge-GG]  TO-3-N3 (biotin conjugate)         label 0
 5  UGUGUUCAGUGGAACCAAGGUAAACACA [hsa-mir-624]  TO-3-N3 (biotin conjugate)         label 1
 6     GCGCUGCCAGAAACUGGCGGCGC [mismatch-UG]  TO-3-N3 (biotin conjugate)         label 1
 7  CUCUCGUGUCCACUAGCAGGCAGGUUUUCUGACACAGG [hsa-mir-604]  TO-3-N3 (biotin conjugate)         label 0
 8  GGAGGCCCCGCUCUGCUGCCGACCCUGUGGAGCGGAGGGUGAAGCCUCC [hsa-mir-3180-4]  TO-3-N3 (biotin conjugate)         label 1
 9     UCCUGAUGGUCCCCUCCCCAGGG [hsa-mir-185]  TO-3-N3 (biotin conjugate)         label 1
10  AUUGCACGUGUGUGAGGCGGGUGCAGU [hsa-mir-33b]  TO-3-N3 (biotin conjugate)         label 1

---

# Tested on: TO-N3 (biotin conjugate)
# assay.info: pull-down binding Z-score (relative to library population); higher = stronger binding
# condition.label: RNA library: Library-2
readout: pull-down binding Z-score

>>> print(df.to_string())
                             sequence_chain                    readout  assay_value
0  UUGAUGUCAGGUUAUCCCCAAGCAUAACCUCAC [hsa-mir-4639]  pull-down binding Z-score       -0.499
1          AGGGCAGGGGUGUGGCU [hsa-mir-4751]  pull-down binding Z-score          2.8
2           GUAGAUUUUAUGUCAC [hsa-mir-892b]  pull-down binding Z-score     -0.00927
3     UCCAGUGUGGCUCGGAGGCUGGA [hsa-mir-139]  pull-down binding Z-score         1.23
4  UCUUGGUGCCACCAUUGAGAACGCCAGGA [hsa-mir-492]  pull-down binding Z-score       -0.279
5  GAGGUUGCAGUGAGCCAAGAUCGUG [hsa-mir-4459]  pull-down binding Z-score        0.743
6  UGGGUUACAUCCUACACAGGCACCUACACACCUCAGUGUUGACACUAAAUUCAAAACUGAAGGUUUAUGUGUUGACAUACCUGGCAUACCUAAGGACAUGACCUA  pull-down binding Z-score       -0.257
7     UUUGCCAGAGCUACAAAGGCAAA [hsa-mir-561]  pull-down binding Z-score       -0.845
8  CCACCCACCAGGGAGCUUUCCAUGGGCUGUGGG [hsa-mir-4725]  pull-down binding Z-score        0.567
9  GAUCCAGCCCAGGCUGGUUCCGCUGAC [hsa-mir-4522]  pull-down binding Z-score         1.23

---

# System: TO-N3-2 (biotin conjugate)
# assay.info: pull-down binding Z-score (relative to library population); higher = stronger binding
# condition.label: RNA library: Library-2
readout: pull-down binding Z-score

In [3]: df
Out[3]:
                             sequence_chain  assay_value
0  GCAAGCUUCGAUAAUUUUAAGUUUGU [SHAPE_invitro_SARS-CoV-2_Motif_120]      -0.0709
1  UGGAGGCUGCAGUGAGCCGAGAUCGAGCCACUGUACUCCA [hsa-mir-1273e]         1.09
2     GGAUCCCAGAUCAAACCAGGCCC [hsa-mir-331]         0.63
3                UUGAGAACCAG [hsa-mir-4328]         1.04
4    UUUUCGCUUUAUAUGUGACGAAAC [hsa-mir-495]       -0.531
5   UAAUAACUGACAAACAGACAAUUG [hsa-mir-4774]       -0.303
